Task for the reader: assign each of the following molecules its reported Effects Solgum.
Test system: solgum
Experiment: Soil treatment test for upland field
Type: in vivo
Set-up: key: 0: normal development; 1: Less damaged; 2: Slightly damaged; 3: Moderately damaged; 4: Severely damaged; 5: All killed
Settings: 500 g/ha, glass house 25° C., 3 weeks
Please reply with the value in numeric form only.

Would you kindly share the measured Effects Solgum for CCC(Oc1cccc(C#N)c1)c1nc2cc(Cl)c(C)cc2o1 (centres unmarked) ?
0

// query Effects Solgum value for entry CCC(Oc1cccc(OC(F)(F)F)c1)c1nc2cc(C#N)c(C#N)cc2o1 (centres unmarked)
1

Look up Effects Solgum for this molecule: CCC(Oc1ccc(F)c(C(F)(F)F)c1)c1nc2ccc(C(F)(F)F)cc2o1 (centres unmarked)
1

Give the measured Effects Solgum of CCC(Oc1ccc(F)c(C(F)(F)F)c1)c1nc2cc(I)ccc2o1 (centres unmarked) .
1

// Effects Solgum lookup, key: CCC(Oc1ccc(F)c(C(F)(F)F)c1)c1nc2cc([N+](=O)[O-])ccc2o1 (centres unmarked)
2

###

System: annual bluegrass
Experiment: Foliar spread test for upland field
Type: in vivo, Poa annua
Set-up: key: 0: normal development; 1: Less damaged; 2: Slightly damaged; 3: Moderately damaged; 4: Severely damaged; 5: All killed
Settings: foliar spray 500 ppm, 3 weeks, rank vs non-treated
Could you please report measured Effects Annual bluegrass for the items listed next?
Enter a number only.

Record CCC(Oc1cccc(OC(F)(F)F)c1)c1nc2cc(Cl)ccc2o1 (centres unmarked) [Compound 447] : what is its Effects Annual bluegrass with annual bluegrass?
2

Notebook entry, annual bluegrass assay: Effects Annual bluegrass of CCC(Oc1cccc(C(F)(F)F)c1)c1nc2cc(Cl)c(C)cc2o1 (centres unmarked) [Compound 339] = ?
2

Tell me reported Effects Annual bluegrass for CCC(Oc1ccc(F)c(C(F)(F)F)c1)c1nc2cc(F)c(F)cc2o1 (centres unmarked) [Compound 284] , tested with annual bluegrass.
3

Query Effects Annual bluegrass on annual bluegrass for CCC(Oc1ccc(F)c(C(F)(F)F)c1)c1nc2cc(Br)ccc2o1 (centres unmarked) [Compound 165]
2

# value lookup — system annual bluegrass, readout Effects Annual bluegrass, item CCCC(Oc1ccc(F)c(C(F)(F)F)c1)c1nc2cc(Cl)ccc2o1 (centres unmarked) [Compound 141]
4

# get_value(readout= Effects Annual bluegrass, system= annual bluegrass) for CCC(Oc1cccc(C(F)(F)F)c1)c1nc2cc(C#N)ccc2o1 (centres unmarked) [Compound 190]
4

Under annual bluegrass: Effects Annual bluegrass value of CCC(Oc1cccc(C(F)(F)F)c1)c1nc2cc([N+](=O)[O-])ccc2o1 (centres unmarked) [Compound 178] ?
3

Hi! What's the reported Effects Annual bluegrass for CCC(Oc1cccc(C#N)c1)c1nc2cc(F)c(Cl)cc2o1 (centres unmarked) [Compound 498] on annual bluegrass?
2

Kindly state the measured Effects Annual bluegrass obtained for CCC(Oc1ccc(F)c(C(F)(F)F)c1)c1nc2cc(OC)ccc2o1 (centres unmarked) [Compound 503] with annual bluegrass.
3

API: value(readout=Effects Annual bluegrass, system=annual bluegrass) for record CCC(Oc1ccc(F)c(C(F)(F)F)c1)c1nc2cc(Cl)ccc2o1 (centres unmarked) [Compound 139]
3

Requested read-out Effects Annual bluegrass, target or system annual bluegrass, entry CCC(Oc1cccc(C(F)(F)F)c1)c1nc2cc(Cl)ccc2o1 (centres unmarked) [Compound 140]
2

Report Effects Annual bluegrass for CCCC(Oc1cccc(C#N)c1)c1nc2cc(Cl)ccc2o1 (centres unmarked) [Compound 457] tested on annual bluegrass.
2

# returns recorded Effects Annual bluegrass (system: annual bluegrass) for CCCC(Oc1ccc(F)c(C(F)(F)F)c1)c1nc2cc(C(F)(F)F)ccc2o1 (centres unmarked) [Compound 199]
2

Observed Effects Annual bluegrass on annual bluegrass for CCC(Oc1ccc(Cl)c(C(F)(F)F)c1)c1nc2cc(Cl)ccc2o1 (centres unmarked) [Compound 438] , please.
3

State its Effects Annual bluegrass on annual bluegrass: CCC(Oc1ccc(F)c(C(F)(F)F)c1)c1nc2ccc(C(F)(F)F)cc2o1 (centres unmarked) [Compound 93]
1

Enter reported Effects Annual bluegrass observed with annual bluegrass for CC(Oc1cccc(C(F)(F)F)c1)c1nc2ccc(C(F)(F)F)cc2o1 (centres unmarked) [Compound 86]
1

Request: Effects Annual bluegrass, test system annual bluegrass, entry CCC(Oc1ccc(F)c(C(F)(F)F)c1)c1nc2cc([N+](=O)[O-])ccc2o1 (centres unmarked) [Compound 177]
4

Which Effects Annual bluegrass is reported with annual bluegrass for this entry: CCC(Oc1cccc(C(F)(F)F)c1)c1nc2cc(C#N)c(C#N)cc2o1 (centres unmarked) [Compound 315] ?
2

Given the entry CCCC(Oc1cccc(C(F)(F)F)c1)c1nc2cc(C#N)c(C#N)cc2o1 (centres unmarked) [Compound 317] , what Effects Annual bluegrass was observed with annual bluegrass?
5

What is its Effects Annual bluegrass for annual bluegrass? Entry: CCC(Oc1cccc(C(F)(F)F)c1)c1nc2cc(C#N)c(Cl)cc2o1 (centres unmarked) [Compound 529]
4

Lookup: Effects Annual bluegrass / annual bluegrass / CCC(Oc1cccc(C(F)(F)F)c1)c1nc2cc(F)ccc2o1 (centres unmarked) [Compound 120]
1

Notebook: pull reported Effects Annual bluegrass for annual bluegrass, entry CCC(Oc1cccc(C(F)(F)F)c1)c1nc2cc(F)c(Cl)cc2o1 (centres unmarked) [Compound 496]
2

Param readout = Effects Annual bluegrass; param system = annual bluegrass; param query = CCCC(Oc1ccc(F)c(C(F)(F)F)c1)c1nc2ccc(C(F)(F)F)cc2o1 (centres unmarked) [Compound 101] ; response: value
1

###

Tested on: Large crabgrass
Assay: Soil treatment test for upland field
Assay type: in vivo, Digitaria adscendens
Set-up: key: 0: normal development; 1: Less damaged; 2: Slightly damaged; 3: Moderately damaged; 4: Severely damaged; 5: All killed
Conditions: 500 g/ha, glass house 25° C., 3 weeks
Measured Endpoint: Effects Large crabgrass
Just the number, please, no unit attached.

Item CCC(Oc1ccc(F)c(C(F)(F)F)c1)c1nc2cc(C#N)c(C#N)cc2o1 (centres unmarked) has what recorded Effects Large crabgrass?
5

Reported Effects Large crabgrass, compound CCC(Oc1cccc(C(F)(F)F)c1)c1nc2ccc(C(F)(F)F)cc2o1 (centres unmarked) : ____
5

Tell me the measured Effects Large crabgrass of CCC(Oc1ccc(F)c(C(F)(F)F)c1)c1nc2cc(F)ccc2o1 (centres unmarked) , please.
5

What does the record list as Effects Large crabgrass for CCC(Oc1cccc(C(F)(F)F)c1)c1nc2cc(S(C)(=O)=O)ccc2o1 (centres unmarked) ?
4

Given the entry CCC(Oc1cccc(C#N)c1)c1nc2cc(F)c(Cl)cc2o1 (centres unmarked) , report its measured Effects Large crabgrass.
5

Given CCC(Oc1ccc(F)c(C(F)(F)F)c1)c1nc2cc(C#N)c(Cl)cc2o1 (centres unmarked) , state its recorded Effects Large crabgrass.
3

# Effects Large crabgrass lookup, item CCC(Oc1ccc(F)c(C(F)(F)F)c1)c1nc2cc(S(C)(=O)=O)c(C)cc2o1 (centres unmarked)
5

Using the record for CCCC(Oc1cccc(C(F)(F)F)c1)c1nc2cc(F)c(C(F)(F)F)cc2o1 (centres unmarked) , report its Effects Large crabgrass.
5

###

System: velvetleaf
Experiment: Soil treatment test for upland field
Format: in vivo, Abutilon theophrasti
Design: key: 0: normal development; 1: Less damaged; 2: Slightly damaged; 3: Moderately damaged; 4: Severely damaged; 5: All killed
Details: 500 g/ha, glass house 25° C., 3 weeks
Please provide measured Effects Velvetleaf for the entries that follow.
Lab note: jot down the number only; don't add units.

Checklist item: Effects Velvetleaf tested on velvetleaf, entry CCCC(Oc1ccc(F)c(C(F)(F)F)c1)c1nc2ccc(C(F)(F)F)cc2o1 (stereo not shown) , value?
2

Query for velvetleaf: what Effects Velvetleaf does the record show for CCC(Oc1ccc(F)c(C(F)(F)F)c1)c1nc2cc(S(C)(=O)=O)c(C)cc2o1 (stereo not shown) ?
3

Reported Effects Velvetleaf for velvetleaf, given CCC(Oc1cccc(C(F)(F)F)c1)c1nc2cc(F)c(C(F)(F)F)cc2o1 (stereo not shown) ?
5

Form field: Effects Velvetleaf recorded for CCC(Oc1ccc(F)c(C(F)(F)F)c1)c1nc2ccc(C(F)(F)F)cc2o1 (stereo not shown) with velvetleaf (enter value)
2

###

Provide the reported Effects Livid amaranth of each item.
Tested on: livid amaranth
Test: Foliar spread test for upland field
Assay type: in vivo, Amaranthus lividus
Set-up: key: 0: normal development; 1: Less damaged; 2: Slightly damaged; 3: Moderately damaged; 4: Severely damaged; 5: All killed
Conditions: foliar spray 500 ppm, 3 weeks, rank vs non-treated
When you answer, write just the number.

# lookup: Effects Livid amaranth of CCCC(Oc1cccc(C(F)(F)F)c1)c1nc2cc(C#N)c(C#N)cc2o1 (stereo not shown)
5

What Effects Livid amaranth value was documented for this compound, CCC(Oc1cccc(C(F)(F)F)c1)c1nc2cc([N+](=O)[O-])ccc2o1 (stereo not shown) ?
4

Could you tell me which Effects Livid amaranth is on file for CCC(Oc1ccc(F)c(C(F)(F)F)c1)c1nc2cc(Cl)c(C)cc2o1 (stereo not shown) ?
4

Entry under review: CCC(Oc1ccc(Cl)c(C(F)(F)F)c1)c1nc2cc(Cl)ccc2o1 (stereo not shown) . Reported Effects Livid amaranth?
5

Data origin, for the record: patent US6706664B1
